Biological target: CIB1 and αIIb interaction (CIB1-GST : F-αIIb peptide) (Homo sapiens, UniProt Q99828)
Construct: made in house; host or cells: BL-21 plus RIL cells (E. coli)
Experiment: FP assay, 1536-well qHTS format (primary and confirmatory screen)
Assay type: binding
Conditions: qHTS primary screen hits, Table S2; negative = inhibition
Examples of molecules with documented Efficacy (%) follow.
parameter: Efficacy (%)

molecule: O=C(Nc1nc(-c2ccccc2)cs1)c1ccncc1NS(=O)(=O)c1cccc2cccnc12.O=C(O)C(F)(F)F
parameter: Efficacy (%)
value.reported: -56

molecule: Cl.O=c1cc(N2CCOCC2)oc2c(-c3ccccc3)cccc12
parameter: Efficacy (%)
value.reported: -52

molecule: CC1CCC2(C1)N=C(Nc1nc3ccccc3o1)NC1=C2C(=O)CCC1.O=C(O)C(F)(F)F (centres unmarked)
parameter: Efficacy (%)
value.reported: -25

molecule: Cc1ccc(S(=O)(=O)Nc2cc3c(cc2C(=O)Nc2nc(-c4ccccc4)cs2)OCO3)cc1.O=C(O)C(F)(F)F
parameter: Efficacy (%)
value.reported: -40

molecule: O=C(c1ccccc1)c1no[n+]([O-])c1C(=O)c1ccccc1
parameter: Efficacy (%)
value.reported: -49

* * *

Examples of molecules with documented log10 IC50 follow.
Biological target: CIB1 and αIIb interaction (GST-CIB1 : F-αIIb peptide) (Homo sapiens)
Construct: made in house; host or cells: BL-21 plus RIL cells (E. coli)
Test: FP assay, 384-well format (screen)
Type: binding
Details: F-αIIb peptide; read-out: 384-well SCREEN IC50
parameter: log10 IC50 (log10 of the value in µM)

molecule: Cc1csc(CNc2ncnc3ccc(-c4ccc(CO)o4)cc23)n1.O=C(O)C(F)(F)F [NCGC00229623-01]
value.reported: 1.55

molecule: Cl.O=C1c2c(O)ccc(O)c2C(=O)c2c(NCCNCCO)ccc(NCCNCCO)c21 [NCGC00015693-04]
value.reported: 0.61

molecule: O=C(O)C(F)(F)F.O=S(=O)(Nc1nc2n(n1)C(c1ccccc1)C=C(c1ccc(Cl)cc1)N2)c1ccccc1 (stereo not shown) [NCGC00100537-04]
value.reported: 1.70

molecule: CN(C)C(=S)SSC(=S)N(C)C [NCGC00091563-02, thiram, reference compound]
value.reported: 0.45

molecule: CCCCCCCCOc1ccccc1C(=O)Nc1ccc(C(=O)OCC[N+](C)(CC)CC)cc1.[Br-] [NCGC00163507-02]
value.reported: 1.10

molecule: CCOC(=O)N1CCN([N+]([O-])=NOc2ccc([N+](=O)[O-])cc2[N+](=O)[O-])CC1 [NCGC00165815-03]
value.reported: 0.26

molecule: CCc1oc2ccccc2c1C(=O)c1cc(Br)c(O)c(Br)c1 [NCGC00013895-08]
value.reported: 1.40

molecule: COC(=O)C12C(=O)C(C)(O)C(=O)C1(C)C(C)=CC1C34CCC(OC3=O)C(C)(CO)C4CCC12C (stereo not shown) [NCGC00380147-01]
value.reported: 1.52

molecule: COc1cccc(-n2c(SCc3cc(=O)oc4cc(O)c(O)cc34)nc3ccccc3c2=O)c1.O=C(O)C(F)(F)F [NCGC00371345-01]
value.reported: 1.05

molecule: O=C(Nc1nc(-c2ccccc2)cs1)c1ccncc1NS(=O)(=O)c1ccccc1Cl.O=C(O)C(F)(F)F [NCGC00344943-01]
value.reported: 1.20

molecule: Cc1ccc(S(=O)(=O)Nc2cnccc2C(=O)Nc2nc(-c3cccc(Cl)c3)cs2)cc1.O=C(O)C(F)(F)F [NCGC00318956-01]
value.reported: 1.15

molecule: Cc1cc(S(=O)(=O)Nc2cnccc2C(=O)Nc2nc(-c3ccccc3)cs2)c(C)o1.O=C(O)C(F)(F)F [NCGC00345029-01]
value.reported: 1.30

molecule: COc1ccccc1C(=O)c1no[n+]([O-])c1C(=O)c1ccccc1OC.O=C(O)C(F)(F)F [NCGC00351170-01]
value.reported: 0.90

molecule: Cc1ccccc1S(=O)(=O)Nc1cnccc1C(=O)Nc1nc(-c2ccccc2)cs1.O=C(O)C(F)(F)F [NCGC00344941-01]
value.reported: 1.25

molecule: O=C(O)C1=CC(=C(c2ccc(O)c(C(=O)O)c2)c2ccc(O)c(C(=O)O)c2)C=CC1=O [NCGC00015040-05]
value.reported: 0.66

molecule: O=C(Nc1nc(-c2ccccc2)cs1)c1ccncc1NS(=O)(=O)c1ccc(Cl)cc1.O=C(O)C(F)(F)F [NCGC00344892-02]
value.reported: 1.55

molecule: CCCCCc1c2c(cc(O)c1C(=O)O)OC(=O)c1c(cc(OC)cc1C(=O)CCCC)O2.O=C(O)C(F)(F)F [NCGC00095570-05]
value.reported: 0.95

molecule: C=CCNc1oc(-c2ccc(-c3ccccc3)cc2)nc1C#N.O=C(O)C(F)(F)F [NCGC00183413-01]
value.reported: 0.85

molecule: Cc1ccc(-c2csc(NC(=O)c3ccncc3NS(=O)(=O)c3ccc(C)cc3)n2)cc1.O=C(O)C(F)(F)F [NCGC00319008-01]
value.reported: 1.03

molecule: O=C(O)C(F)(F)F.O=C(O)c1ccc(-c2ccc3ncnc(NCc4nccs4)c3c2)o1 [NCGC00229620-01]
value.reported: 1.25

molecule: Cc1cc(=O)oc2cc(SC3=NS(=O)(=O)c4ccccc43)ccc12 [NCGC00189497-01]
value.reported: 1.65

molecule: CC(C)(C)c1ccc(SC2=NS(=O)(=O)c3ccccc32)cc1 [NCGC00189495-01]
value.reported: 0.95

molecule: Cn1sc(=O)n(Cc2ccccc2)c1=O [NCGC00165913-03]
value.reported: 0.23

molecule: CCc1ccc(/C=C2/SC(=S)NC2=O)cc1 [NCGC00185994-01]
value.reported: 1.25

* * *

Molecular target: CIB1 and αIIb interaction (CIB1-GST : F-αIIb peptide) (Homo sapiens, UniProt Q99828)
Construct: made in house; host or cells: BL-21 plus RIL cells (E. coli)
Sequence (Q99828 1-191): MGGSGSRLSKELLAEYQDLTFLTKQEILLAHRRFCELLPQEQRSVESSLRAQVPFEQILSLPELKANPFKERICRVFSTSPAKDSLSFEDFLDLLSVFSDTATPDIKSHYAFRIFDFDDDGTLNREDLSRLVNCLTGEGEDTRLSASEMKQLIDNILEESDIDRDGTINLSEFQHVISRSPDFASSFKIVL
Assay: FP assay, 1536-well qHTS format (primary and confirmatory screen)
Type: binding
Settings: qHTS primary screen hits, Table S2; negative = inhibition
parameter: Efficacy (%)

compound: CS(=O)(=O)c1ccc(C(=O)C2C(=O)CCCC2=O)c([N+](=O)[O-])c1
value.reported: -30

compound: O=c1cc(-c2ccccc2)oc2cc(O)c(O)c(O)c12
value.reported: -30

compound: Cl.O=S(=O)(Nc1nccs1)c1ccc(NCc2cc(Cl)ccc2O)cc1
value.reported: -27

compound: Cc1ccc(S(=O)(=O)Nc2ccc(OC(F)(F)F)cc2C(=O)Nc2nc(-c3ccccc3)cs2)cc1.O=C(O)C(F)(F)F
value.reported: -27

compound: CCCc1ccc(-c2csc(NC(=O)c3ccncc3NS(=O)(=O)c3ccc(C)cc3)n2)cc1.O=C(O)C(F)(F)F
value.reported: -35

compound: Cc1cc2c(cc1C1(c3ccc(C(=O)O)cc3)CC1)C(C)(C)CCC2(C)C
value.reported: -27

compound: O=C(O)C(F)(F)F.O=C(O)c1ccc(O)c2ncc(N3CCN(Cc4ccccc4)CC3)cc12
value.reported: -24

compound: Nc1ccncc1N
value.reported: -26

compound: CCCCCCCCCCCCCCC[C@H](O)[C@@H](N)CO
value.reported: -110

compound: O=C(NNC(=O)c1nc2ccccc2[nH]1)OCc1ccccc1
value.reported: -24

compound: OCc1ccc(-c2ccc(-c3ccc(CO)s3)o2)s1
value.reported: -57

compound: CN(C)[C@H]1CCN(c2cccc(Nc3nn4c(=O)c5ccccc5nc4s3)c2)C1.O=C(O)C(F)(F)F
value.reported: -39

compound: C=CCNc1oc(-c2ccc(-c3ccccc3)cc2)nc1C#N.O=C(O)C(F)(F)F
value.reported: -28

compound: O=C(Cc1ccc(Cl)c(Cl)c1)Nc1ccc(S(=O)(=O)Nc2cccc(C(=O)O)c2)cc1.O=C(O)C(F)(F)F
value.reported: -20

compound: O=c1[nH]sc2cc(Cl)ccc12 [NCGC00262908-01, ticlatone, reference compound]
value.reported: -68

compound: CC(=O)NC(C)c1cc(Cl)c2cccnc2c1O (centres unmarked)
value.reported: -34

compound: CNc1nc2c(s1)C(c1c(F)cccc1Cl)CC(=O)N2.O=C(O)C(F)(F)F (centres unmarked)
value.reported: -65

compound: CN(C)c1ccc(C(=C2C=CC(=[N+](C)C)C=C2)c2ccccc2)cc1.CN(C)c1ccc(C(=C2C=CC(=[N+](C)C)C=C2)c2ccccc2)cc1.O=C(O)C(=O)O.O=C([O-])C(=O)O.O=C([O-])C(=O)O
value.reported: -53

compound: C[C@]12CC[C@@H]3c4ccc(OC(=O)N(CCCl)CCCl)cc4CC[C@H]3[C@@H]1CC[C@@H]2O
value.reported: -41

compound: Cc1csc(CNc2ncnc3ccc(-c4ccc(CO)o4)cc23)n1.O=C(O)C(F)(F)F
value.reported: -60

compound: COc1ccnc2c1CCCCC2[S+]([O-])c1nc2ccccc2[nH]1 (centres unmarked)
value.reported: -30

compound: CC1(C)OB(c2ccc(O)c3ncc(N4CCNCC4)cc23)OC1(C)C.O=C(O)C(F)(F)F
value.reported: -78

compound: O=C(Cc1ccccc1)NC(c1ccco1)c1cc(Cl)c2cccnc2c1O.O=C(O)C(F)(F)F (centres unmarked)
value.reported: -35

Attribution: paper PMC11249646
